experiment: Clearance in C57 mouse at 1 mg/kg, iv measured for 20 mins by LC-MS/MS analysis; type: ADME, organism-based; conditions: in vivo
measure_name: clearance (mL/min/kg)
Kindly provide the numeric value in mL/min/kg only, without the unit symbol.

Would you mind telling me what clearance value was observed for O=C(/C=C/c1ccc(O)cc1)NCCc1cn(Cc2cccc(Br)c2)c2ccccc12 ? 20.4

###

Catalogue of remaining at 0 min, 2 µM values
assay: Metabolic stability in human plasma assessed as compound remaining at 2 uM measured immediately by LC-MS/MS analysis; assay type: ADME, cell-free; conditions: read-out: Stability
Mention the unit after the number when you answer.

Would you mind telling me what remaining at 0 min, 2 µM value was observed for O=C(/C=C/c1ccc(O)cc1)NCCc1cn(Cc2cccc(Br)c2)c2ccccc12 ? 100%

Continue with CC(C(O)c1ccc(O)cc1)N1CCC(Cc2ccccc2)CC1 (configuration not stated) 100%
